Listing of recorded IC50 by entry.
Target: Beta Secretase enzyme (BACE) (Homo sapiens)
Sequence (P56817 46-501): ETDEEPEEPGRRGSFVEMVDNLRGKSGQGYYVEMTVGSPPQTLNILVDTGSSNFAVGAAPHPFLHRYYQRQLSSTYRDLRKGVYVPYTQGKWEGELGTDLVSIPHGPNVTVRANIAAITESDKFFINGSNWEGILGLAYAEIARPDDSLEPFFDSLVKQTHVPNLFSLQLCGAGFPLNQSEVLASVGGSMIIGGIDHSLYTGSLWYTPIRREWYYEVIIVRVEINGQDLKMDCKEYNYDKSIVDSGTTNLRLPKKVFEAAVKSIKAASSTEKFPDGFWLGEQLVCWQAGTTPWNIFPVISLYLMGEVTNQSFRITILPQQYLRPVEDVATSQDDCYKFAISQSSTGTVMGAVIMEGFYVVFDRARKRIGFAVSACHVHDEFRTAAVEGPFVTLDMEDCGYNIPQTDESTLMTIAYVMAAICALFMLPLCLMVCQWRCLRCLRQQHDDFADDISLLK
Test: In vitro enzymatic BACE FRET (fluorescence resonance energy transfer) assay;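 note: fluorescence read after 1 h with 50 nM quenched peptide substrate spanning the BACE cleavage site, in pH 4.2 acetate buffer containing 10% DMSO and nonionic detergent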
Format: biochemical
Conditions: BACE enzyme assay IC50; read-out: BACE1 FRET assay
Please state the figure in µM; there is no need to write the unit.

molecule | IC50 [µM]
CC(=O)N[C@@H](Cc1ccc(F)c(-c2ncc[nH]2)c1)[C@H](O)CN[C@H]1CC2(CCC2)Oc2ncc(CC(C)(C)C)cc21 | 0.061
COCC(=O)N[C@H](Cc1cccc(-c2nccs2)c1)[C@@H](O)CN[C@H]1CC2(CCC2)Oc2ccc(CC(C)(C)C)cc21 | 0.008
CC(C)(C)Cc1cnc2c(c1)[C@@H](NC[C@@H](O)[C@H](Cc1ccc(F)cc1)NC(=O)[C@@H]1CN(Cc3ccccc3)CCO1)CC1(CCC1)O2 | 0.04
CO[C@H](C)C(=O)N[C@@H](Cc1cc(F)cc(-c2nccs2)c1)[C@H](O)CN[C@H]1CC2(CCC2)Oc2ncc(CC(C)(C)C)cc21 | 0.008

Task: Consider the molecule CNc1nc(CC(C)C)cc2c1OC1(CCC1)C[C@@H]2NC[C@@H](O)[C@H](Cc1ccc2c(c1)OCO2)NC(=O)COC and give its recorded IC50.
Result: 0.064

Task: Determine from records and report IC50 for CC(=O)N[C@@H](Cc1ccc(-c2cscn2)cc1)[C@H](O)CN[C@H]1CC2(CCC2)Oc2ncc(CC(C)(C)C)cc21
Result: 0.043

* * *

Biological target: CYP2D6 (Homo sapiens, UniProt P10635)
Sequence (P10635 whole entry): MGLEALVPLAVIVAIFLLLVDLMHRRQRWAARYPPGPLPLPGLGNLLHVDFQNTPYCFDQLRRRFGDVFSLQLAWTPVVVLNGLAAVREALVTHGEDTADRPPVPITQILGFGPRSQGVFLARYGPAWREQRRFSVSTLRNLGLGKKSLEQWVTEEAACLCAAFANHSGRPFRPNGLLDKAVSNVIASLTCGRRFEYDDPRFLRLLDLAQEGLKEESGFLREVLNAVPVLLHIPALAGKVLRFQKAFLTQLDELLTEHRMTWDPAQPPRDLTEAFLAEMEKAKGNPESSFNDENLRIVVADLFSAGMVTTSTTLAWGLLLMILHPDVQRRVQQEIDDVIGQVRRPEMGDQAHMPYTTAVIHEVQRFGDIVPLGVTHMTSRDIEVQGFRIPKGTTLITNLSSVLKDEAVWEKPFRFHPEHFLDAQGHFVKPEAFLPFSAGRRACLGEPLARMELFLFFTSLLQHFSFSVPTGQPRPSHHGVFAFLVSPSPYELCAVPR
Test: CYP2D6 inhibition assay (bufuralol, pooled human liver microsomes)
Conditions: 2D6 IC50, CYP2D6 inhibition
property.label: IC50 (nM)
Write the answer as a number in nM, unit excluded.

molecule | units.label | IC50
COCC(=O)N[C@@H](Cc1ccccc1)[C@H](O)CN[C@H]1CC2(CCC2)Oc2c(-c3cncn3C)cc(CC(C)C)cc21 | nM | 4100
CC(C)(C)Cc1cnc2c(c1)[C@@H](NC[C@@H](O)[C@H](Cc1ccc(F)cc1)NC(=O)COC(F)F)CC1(CCC1)O2 | nM | 2700
CO[C@H](C)C(=O)N[C@@H](Cc1ccc2c(c1)OCO2)[C@H](O)CN[C@H]1CC2(CCC2)Oc2nc3c(cc21)[C@H](C(C)C)CO3 | nM | 4000
CC(=O)N[C@@H](Cc1ccc(F)c(-c2ccncc2)c1)[C@H](O)CN[C@H]1CC2(CCC2)Oc2ncc(CC(C)(C)C)cc21 | nM | 400
CO[C@H](C)C(=O)N[C@@H](Cc1cncs1)[C@H](O)CN[C@H]1CC2(CCC2)Oc2c(-c3ccncc3)cc(CC(C)(C)C)cc21 | nM | 3100

Now look at this entry.
Task: Look up and report measured IC50 for this entry: COCC(=O)N[C@@H](Cc1cccc(F)c1)[C@H](O)CN[C@H]1CC2(CCC2)Oc2c1cc(CC(C)(C)F)cc2-n1ccnc1
Result: 600

* * *

Molecular target: CYP3A4 (CYP3A) (Homo sapiens);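 note: inhibition of CYP3A-mediated 1-hydroxymidazolam formation after 10 min incubation with NADPH, quantified by HPLC MS relative to metabolite produced without test compound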
Sequence (P08684 2-503): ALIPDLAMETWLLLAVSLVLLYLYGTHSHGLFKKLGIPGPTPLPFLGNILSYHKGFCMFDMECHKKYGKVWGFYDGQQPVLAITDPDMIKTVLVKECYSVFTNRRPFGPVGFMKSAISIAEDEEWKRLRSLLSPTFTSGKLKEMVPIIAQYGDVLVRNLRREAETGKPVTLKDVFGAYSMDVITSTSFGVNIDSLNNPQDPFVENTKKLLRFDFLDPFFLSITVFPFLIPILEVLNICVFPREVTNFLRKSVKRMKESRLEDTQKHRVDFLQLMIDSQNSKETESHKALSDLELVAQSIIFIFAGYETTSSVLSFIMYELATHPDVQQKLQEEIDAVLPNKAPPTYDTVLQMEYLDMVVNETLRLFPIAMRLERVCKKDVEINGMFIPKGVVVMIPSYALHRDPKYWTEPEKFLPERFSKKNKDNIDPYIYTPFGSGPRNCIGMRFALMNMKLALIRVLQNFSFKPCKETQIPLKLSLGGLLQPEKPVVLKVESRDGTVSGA
Assay: in vitro
Conditions: microsomes, pH 7.4
property.label: pIC50
The read-out pIC50 is expressed as -log10 of concentration in moles per litre.

molecule | reading
CNc1nc(CC(C)(C)C)cc2c1OC1(CCC1)C[C@@H]2NC[C@@H](O)[C@H](Cc1ccc(F)c(-c2nccs2)c1)NC(=O)COC | 6.40

Now look at this entry.
Task: Please indicate pIC50 recorded for CC(=O)N[C@@H](Cc1cccc(-c2cccnc2)c1)[C@H](O)CN[C@H]1CC2(CCC2)Oc2ncc(CC(C)(C)C)cc21
Result: 6.80

* * *

Molecular target: CYP2D6 (Homo sapiens)
Assay: CYP2D6 inhibition assay (bufuralol, pooled human liver microsomes)
Conditions: 2D6 IC50 (uM), CYP enzyme inhibition
Strictly below 1 µM in IC50: t. Otherwise: f.

molecule | label
COCC(=O)N[C@@H](Cc1ccc2c(c1)OCO2)[C@H](O)CN[C@H]1CC2(CCC2)Oc2ccc(C[C@@H](C)F)cc21 | t
CO[C@H](C)C(=O)N[C@H](Cc1cc(F)cc(-c2nccs2)c1)[C@@H](O)CN[C@H]1CC2(CCC2)Oc2ncc(Br)cc21 | t
COCC(=O)N[C@@H](Cc1cc(F)cc(F)c1)[C@H](O)CN[C@H]1CC2(CCC2)Oc2c1cc(CC(C)(C)C)nc2Nc1ccncc1 | f
CC(C)(C)Cc1cnc2c(c1)[C@@H](NC[C@@H](O)[C@H](Cc1ccc(F)cc1)NC(=O)[C@H]1CN(Cc3cscn3)CCO1)CC1(CCC1)O2 | f

Task: Dear reviewer, please state whether CC#Cc1cccc(C[C@H](NC(=O)COC)[C@H](O)CN[C@H]2CC3(CCC3)Oc3ncc(CC(C)C)cc32)c1 has IC50 strictly beneath 1 µM.
Result: f

Task: For CO[C@H](C)C(=O)N[C@@H](Cc1cc(F)cc(F)c1)[C@H](O)CN[C@H]1CC2(CCC2)Oc2c(-c3cncs3)cc(CC(C)C)cc21 , is the recorded IC50 below the cut-off of 1 µM?
Result: f

Task: State whether 1 µM exceeds IC50 recorded for COCC(=O)N[C@@H](Cc1ccc(F)cc1)[C@H](O)CN[C@H]1CC2(CCC2)Oc2c1cc(CC(C)(C)C)nc2-c1ccncc1 .
Result: f

Task: # TODO verify IC50 < 1 µM strictly for this compound: COCC(=O)N[C@@H](Cc1cc(F)cc(F)c1)[C@H](O)CN[C@H]1CC2(CCC2)Oc2c(-c3ccncc3)cc(C3CC3)cc21
Result: t

Task: Does this compound meet the criterion IC50 < 1 µM? CO[C@H](C)C(=O)N[C@@H](Cc1ccc(F)c(-c2nccs2)c1)[C@H](O)CN[C@H]1CC2(CCC2)Oc2ncc(CC(C)(C)F)cc21
Result: t

Task: Please state whether IC50 is below 1 µM for COCC(=O)N[C@@H](Cc1cc(F)cc(F)c1)[C@H](O)CN[C@H]1CC2(CCC2)Oc2c1cc(CC(C)(C)C)nc2-c1cnc[nH]1
Result: f

Task: Answer whether the compound CC[C@H](OC)C(=O)N[C@@H](Cc1ccc(F)cc1)[C@H](O)CN[C@H]1CC2(CCC2)Oc2ncc(CC(C)(C)C)cc21 has IC50 strictly less than 1 µM
Result: f

Task: Check if IC50 falls below 1 µM for C#Cc1cc(C[C@H](NC(=O)COCC)[C@H](O)CN[C@H]2CC3(CCC3)Oc3ncc(CC(C)(C)C)cc32)ccc1F .
Result: f

* * *

Experiment: Microsomal stability assay, human liver microsomes;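 note: pooled human liver microsomes at 0.25 mg/mL with 1 µM compound and NADPH at 37 °C, pH 7.4, for 30 min, unchanged parent quantified by LC-MS/MS against the 0 min sample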
Details: human liver microsomal data
Each entry gets 0 (no) if its HLM stays under 60 µL/min/mg, and 1 (yes) if its HLM is 60 µL/min/mg or above.

compound | label
CCOCC(=O)N[C@@H](Cc1ccc(F)c(-c2nccs2)c1)[C@H](O)CN[C@H]1CC2(CCC2)Oc2ncc(CC(C)(C)C)cc21 | 0 (no)
CC(C)(C)Cc1cnc2c(c1)[C@@H](NC[C@@H](O)[C@H](Cc1ccc3c(c1)OCO3)NC(=O)[C@H]1CCC(=O)C1)CC1(CCC1)O2 | 1 (yes)
CO[C@H](C)C(=O)N[C@@H](Cc1ccccc1)[C@H](O)CN[C@H]1CC2(CCC2)Oc2c1cc(CC(C)(C)C)nc2-c1ccncc1 | 0 (no)
COCC(=O)N[C@@H](Cc1ccc2c(c1)OCO2)[C@H](O)CN[C@H]1CC2(CCC2)Oc2ncc(CC(F)(F)F)cc21 | 0 (no)
CO[C@H](C)C(=O)N[C@@H](Cc1cccc(F)c1)[C@H](O)CN[C@H]1CC2(CCC2)Oc2c(-c3ccncc3)cc(CC(C)(C)O)cc21 | 1 (yes)
CCO[C@@H](C)C(=O)N[C@@H](Cc1ccc2c(c1)OCO2)[C@H](O)CN[C@H]1CC2(CCC2)Oc2ncc(CC(C)C)cc21 | 0 (no)
CO[C@H](C)C(=O)N[C@@H](Cc1cc(F)cc(F)c1)[C@H](O)CN[C@H]1CC2(CCC2)Oc2ncc(CC(C)(C)C#N)cc21 | 1 (yes)
CCCc1cnc2c(c1)[C@@H](NC[C@H](O)[C@@H](Cc1cc(F)cc(-c3nccs3)c1)NC(=O)COC)CC1(CCC1)O2 | 1 (yes)

Task: Does CO[C@H](C)C(=O)N[C@H](Cc1cc(F)cc(-c2nccs2)c1)[C@@H](O)CN[C@H]1CC2(CCC2)Oc2ncc(Br)cc21 have a reported HLM of at least 60 µL/min/mg?
Result: 1 (yes)

Task: hey, is HLM for this one >= 60 µL/min/mg? CC(C)Cc1cnc2c(c1)[C@@H](NC[C@@H](O)[C@H](Cc1ccc3c(c1)OCO3)NC(=O)[C@H](C)F)CC1(CCC1)O2
Result: 1 (yes)

Task: Threshold query (HLM >= 60 µL/min/mg) on C#Cc1cccc(C[C@H](NC(=O)COC)[C@H](O)CN[C@H]2CC3(CCC3)Oc3ncc(CC(C)C)cc32)c1
Result: 0 (no)
